assay: Pharmacokinetic profile, intravenous administration
Format: in vivo, male SD Rats
condition_set: male, SD, rat, plasma, iv, 5 mg/kg, I.V. 5 mg/kg, individual rats (Rat 1-3)
measurement_label: half-life (h)
Could you give me the number in h? Just the number is fine.

Looking up CC(CCC[C@@H](C)[C@H]1CCC2C3C(CC[C@@]21C)[C@@]1(C)CC[C@H](NCCCNCCCCNCCCN)C[C@@H]1C[C@H]3O)C(=O)O (single isomer, unassigned) , I see its half-life listed as 18.6

----------
measurement_target: PP1B (Homo sapiens)
Construct: purchased Recation Biology Inc
Sequence (P62140 whole entry): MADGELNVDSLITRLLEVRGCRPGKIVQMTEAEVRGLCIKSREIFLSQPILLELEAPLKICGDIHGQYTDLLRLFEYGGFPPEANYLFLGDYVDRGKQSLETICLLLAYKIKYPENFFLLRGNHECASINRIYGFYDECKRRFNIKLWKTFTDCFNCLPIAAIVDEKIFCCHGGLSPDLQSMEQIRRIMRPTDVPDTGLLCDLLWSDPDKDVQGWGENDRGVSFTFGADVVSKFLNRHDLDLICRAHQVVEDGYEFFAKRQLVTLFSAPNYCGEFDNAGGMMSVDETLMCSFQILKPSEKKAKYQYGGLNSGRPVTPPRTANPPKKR
assay: Phosphatase panel, DiFMUP fluorescence assay
Assay type: biochemical
condition_set: Table 19A; read-out: inhibitory activity PP1B
pIC50: −log10 of the molar value.
measurement_label: pIC50

{"columns": ["compound", "pIC50"],
 "data": [
  ["CC(CCC[C@@H](C)[C@H]1CCC2C3C(CC[C@@]21C)[C@@]1(C)CC[C@H](NCCCNCCCCNCCCN)C[C@@H]1C[C@H]3O)C(=O)O (single isomer, unassigned)", "< 4.00"]
]}

Please find the next compound below.
Entry CC(CCC[C@@H](C)[C@H]1CCC2C3C(CC[C@@]21C)[C@@]1(C)CC[C@H](NCCCNCCCCN)C[C@@H]1C[C@H]3O)C(=O)O (single isomer, unassigned) ; pIC50 = < 4.00
